These entries and their values trace back to PubChem BioAssay AID1159580.

Experiment: chemical genetic growth profiling, strain panel (AID 1159580);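 further: tested at 20 µM; growth read once vehicle control cultures reached saturation at 30 °C; lower values mean less growth of the strain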
Settings: S. cerevisiae deletion strains, growth OD, locus YLR221C, strain rsa3, stronger effect = lower value
Hit rate of the full screen: of about 5,500 compounds, about 2,000 (36%) were called active. Inconclusive results (about 18%) are left out. The list shows a part of the results.
The threshold is 1. Values of normalized growth beneath it are tagged yes; values meeting or exceeding it are tagged no.

- itemSmiles: "CC(=O)Oc1cc(-c2coc3cc(OC(C)=O)c(OC(C)=O)c(OC(C)=O)c3c2=O)cc(OC(C)=O)c1OC(C)=O"
  discreteLabel: "yes"
- itemSmiles: "O=C1c2c(O)ccc(O)c2C(=O)c2c(NCCNCCO)ccc(NCCNCCO)c21"
  discreteLabel: "yes"
- itemSmiles: "CC(=O)O.CC(=O)O.[Cd]"
  discreteLabel: "yes"
- itemSmiles: "CC1=NCCc2c1[nH]c1cc(O)ccc21"
  discreteLabel: "no"
- itemSmiles: "COC(=O)C1=C(C)NC(C)=C(C(=O)OC)C1c1ccccc1[N+](=O)[O-]"
  discreteLabel: "yes"
- itemSmiles: "CC(=O)Oc1ccc(-c2cc(=O)c3c(OC(C)=O)cc(OC(C)=O)cc3o2)cc1"
  discreteLabel: "yes"
